The origin of these recorded values is patent US20260258115A1.

target: RSV F on RSV subtype A virus (mKate-RSV A2) (respiratory syncytial virus A2, UniProt P03420 26-574); assay: cell-based or functional assay
experimental_readout: Neut IC50 subtype A

The examples below pair each entry with its known result.
[
  {
    "binder": "ADI-22759 (antibody, V domains shown, full-length IgG) VH: EVQLLESGGGLVKPGGSLRLSCAASGFSFSSYTMNWVRQAPGKGLEWVSSITGGSSYIDYAGSLKGRFTISRDNAKNSLYLQMNSLRVEDTAVYYCARDFPNIAVGGKTLDYWGQGTLVTVSS VL: QPVLTQPPSVSGAPGQRVTISCTGSSSNIGAGYDVHWFQQLPGTAPKLLIYVNNNRPSGVPDRFSGSKSGTSASLAITGLQAEDEADYYCQSYDRLSAVVFGGGTKVTVL",
    "Neut IC50 subtype A": "0.08 mg/L"
  },
  {
    "binder": "ADI-25479 (antibody, V domains shown, full-length IgG) VH: EVQLVESGGGLVKPGGSLRLSCAASGFTFSSYSMNWVRQAPGKGLEWVSSISSSSSYIYYADSVKGRFTISRDNAKNSLYLQMNSLRAEDTAVYYCARGGYSYGAYYYYYMDVWGKGTTVTVSS VL: QSVLTQPPSVSGAPGQRVTISCTGSSSNIGAGYDVHWYQQLPGTAPKLLIYGNSNRPSGVPDRFSGSKSGTSASLAITGLQAEDEADYYCQSYDSSLSGYWVFGGGTKLTVL",
    "Neut IC50 subtype A": "0.24 mg/L"
  }
]

Task item: Look up Neut IC50 subtype A: ADI-14334 (antibody, V domains shown, full-length IgG; also called Ab 2) VH: EVQLVESGGGLVKPGGSLRLSCAASGVTVSSYYMTWVRQAPGKGLEFISDISSSSTYTNYADSVKGRFTISRDNAKSSLYLQMNNLRAEDTAVYYCARLGITVTGVGYFDLWGRGTLVTVSS VL: QPGLTQPPSVSGAPGQRVTISCTGSSSNIGAGYDVHWYQQLPGTAPKLLIHDNNNRPSGVPDRFSGSKSGTSASLAITGLQVEDEADYYCQSYDSSLSNYVFGTGTKLTVL
Reply: 0.05 mg/L
